- Tested on: α2-GABAA receptor
- assayProtocol: Ligand-binding assay, radiolabeled flumazenil competition, spinal cord membranes
- experimentalParameters: 10^−7 M; rat spinal cord membranes; radiolabeled flumazenil 1 nM
outcomeMeasure: % inhib 10^−7 M, affinity for the α2-subunit of the GABAA receptor (%)

>  <compound>
CCN(CC)C(=O)Cc1c(-c2ccc(OC)cc2)nc2ccc(OC)nn12 [Example 75]

>  <valueMeasured>
9.3

$$$$
>  <compound>
Cc1ccc(-c2nc3ccc(C)nn3c2CC(=O)N(C(C)C)C(C)C)cc1 [Example 84]

>  <valueMeasured>
3.1

$$$$
>  <compound>
CCCN(CCC)C(=O)Cc1c(-c2ccc(OC)cc2)nc2ccc(C)nn12 [Example 71]

>  <valueMeasured>
50.6

$$$$
>  <compound>
COc1ccc2nc(-c3ccc(F)cc3)c(CC(=O)N3CCCCC3)n2n1 [Example 65]

>  <valueMeasured>
16.3

$$$$
>  <compound>
Cc1ccc(-c2nc3ccc(C)nn3c2CC(=O)Nc2nccs2)cc1 [Example 83]

>  <valueMeasured>
57.7

$$$$
